Data credit: ChEMBL document CHEMBL3414463

- procedure-summary: AUC (0 to infinity) in Sprague-Dawley rat at 0.25 mg/kg, iv
- Format: ADME, organism-based, Plasma
- Design: dose 0.25 mg/kg, route intravenous, time infinity
- cond: Sprague-Dawley, plasma
Returns one of Satisfied or Not satisfied; Satisfied when AUC(0-inf) is >= 2 µM·h.

A selection of reference data follows.
COc1cnc2ccc(C(F)(F)c3nnc4c(F)cc(-c5cc(C)no5)cn34)cc2c1    Satisfied
Cc1cc(-c2cc(F)c3nnc([C@@H](C)c4ccc5ncccc5c4)n3c2)sn1    Not satisfied
Fc1cc(-c2cnn(C3CC3)c2)cn2c(C(F)(F)c3ccc4ncccc4c3)nnc12    Satisfied
COc1cnc2ccc([C@@](C)(F)c3nnc4c(F)cc(-c5cnn(C)c5)cn34)cc2c1    Satisfied

Then there is this compound:
State whether the measured AUC(0-inf) reaches 2 µM·h, counting equality as reaching it, for `Fc1cc(-c2cscn2)cn2c(C(F)(F)c3ccc4ncccc4c3)nnc12` Not satisfied
